molecular target: Tyrosine-protein phosphatase non-receptor type 1 (Homo sapiens) (UniProt P18031); assay: Inhibitory activity against human protein tyrosine phosphatase 1B (PTP1B) at a concentration of 1 uM
Sequence (P18031 whole entry): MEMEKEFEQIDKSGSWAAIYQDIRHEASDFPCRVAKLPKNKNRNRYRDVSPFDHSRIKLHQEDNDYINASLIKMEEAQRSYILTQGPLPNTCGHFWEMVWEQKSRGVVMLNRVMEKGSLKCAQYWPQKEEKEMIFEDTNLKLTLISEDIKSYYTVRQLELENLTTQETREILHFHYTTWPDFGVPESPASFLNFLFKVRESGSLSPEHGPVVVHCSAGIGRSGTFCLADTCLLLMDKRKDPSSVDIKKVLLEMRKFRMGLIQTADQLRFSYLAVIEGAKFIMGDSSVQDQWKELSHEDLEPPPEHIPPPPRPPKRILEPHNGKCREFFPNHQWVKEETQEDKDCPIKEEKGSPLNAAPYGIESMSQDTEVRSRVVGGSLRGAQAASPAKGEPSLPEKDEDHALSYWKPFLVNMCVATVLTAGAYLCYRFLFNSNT
ASSAY ENDPOINT: inhibition (%)
Hi! Could you send only the number? It should be in %, unit omitted.

Need inhibition, item CCCCCNC(=O)[C@H](Cc1ccc(OCC(=O)O)c(C(=O)O)c1)NC(=O)[C@H](CCO)NC(=O)OC(C)(C)C
11

Need inhibition, item CCCCCNC(=O)[C@H](Cc1ccc(OC(C(=O)O)C(=O)O)cc1)NC(=O)[C@H](Cc1ccccc1)NC(=O)CCNC(=O)OC(C)(C)C
14

Need inhibition, item CCCCCNC(=O)[C@H](Cc1ccc(OCC(=O)O)c(C(=O)O)c1)NC(=O)[C@H](Cc1ccccc1)NC(=O)CSc1nc[nH]n1
36

Need inhibition, item CCCCCNC(=O)[C@H](Cc1ccc(OCC(=O)O)c(C(=O)O)c1)NC(=O)[C@H](Cc1ccccc1)NC(=O)Cc1ccccc1
45

Need inhibition, item CCCCCNC(=O)[C@H](Cc1ccc(OC(C(=O)O)C(=O)O)cc1)NC(=O)[C@H](Cc1cccc2ccccc12)NC(=O)OC(C)(C)C
3

Need inhibition, item CCCCCNC(=O)[C@H](Cc1ccc(OCC(=O)O)c(C(=O)O)c1)NC(=O)[C@H](Cc1ccccc1)NC(=O)CSc1c[nH]nn1
49

Need inhibition, item CCCCCNC(=O)[C@H](Cc1ccc(OC(C(=O)O)C(=O)O)cc1)NC(=O)[C@H](Cc1ccccc1)NS(=O)(=O)Cc1ccccc1
4

Need inhibition, item CCCCCNC(=O)[C@H](Cc1ccc(OCC(=O)O)c(C(=O)O)c1)NC(=O)[C@H](Cc1ccccc1)NC(C)=O
28

Need inhibition, item CCCCCNC(=O)[C@H](Cc1ccc(OCC(=O)O)c(C(=O)O)c1)NC(=O)[C@H](Cc1ccccc1)N1CCCC1=O
24
